Taken from ChEMBL document CHEMBL2086293.

SYSTEM UNDER TEST: Mitogen-activated protein kinase 8 (Homo sapiens)
Sequence (P45983 whole entry): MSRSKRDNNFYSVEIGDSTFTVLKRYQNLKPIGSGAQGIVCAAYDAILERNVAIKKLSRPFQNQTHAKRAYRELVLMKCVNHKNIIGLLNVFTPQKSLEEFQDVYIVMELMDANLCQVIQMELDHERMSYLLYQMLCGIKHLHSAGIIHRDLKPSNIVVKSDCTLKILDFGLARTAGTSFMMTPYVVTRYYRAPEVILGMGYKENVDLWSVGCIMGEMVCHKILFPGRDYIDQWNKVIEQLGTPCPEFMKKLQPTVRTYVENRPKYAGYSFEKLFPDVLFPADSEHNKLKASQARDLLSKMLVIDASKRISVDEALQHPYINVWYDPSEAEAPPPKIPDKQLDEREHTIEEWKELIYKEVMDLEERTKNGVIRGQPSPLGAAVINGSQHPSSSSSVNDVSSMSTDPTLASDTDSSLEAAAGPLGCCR
ASSAY INFO: Inhibition of JNK1-mediated ATF2 phosphorylation after 1 hr by ELISA
MEASURED PARAMETER: IC50 (nM)

1) CCOc1nc(Nc2ccc(C(N)=O)cc2)cc(N)c1C#N    190
2) CCOc1nc(C(=O)NCc2ccccc2)cc(N)c1C#N    350
3) CCOc1nc(Nc2ccccc2)cc(N)c1C#N    1040
4) CC(C)(C)Nc1nc(Nc2ccc(C(N)=O)cc2)cc(N)c1C#N    231
5) CCOc1nc(NC(=O)Cc2ccccc2)cc(N)c1C#N    260

* * *

ASSAY INFO: Tmax in mouse at 25 mg/kg, po
Assay type: ADME, organism-based
Set-up: dose 25 mg/kg, route oral
CONDITION LABEL: in vivo
MEASURED PARAMETER: Tmax (min)

1) CC(C)(C)Nc1nc(Nc2ccc(C(N)=O)cc2)cc(N)c1C#N    15

* * *

ASSAY INFO: AUC in mouse at 25 mg/kg, po
Format: ADME, organism-based
Parameters: dose 25 mg/kg, route oral
CONDITION LABEL: plasma
MEASURED PARAMETER: AUC (ng·h/mL)

1) CC(C)(C)Nc1nc(Nc2ccc(C(N)=O)cc2)cc(N)c1C#N    6600

* * *

ASSAY INFO: Cmax in mouse at 25 mg/kg, po
Type: ADME, organism-based
Parameters: dose 25 mg/kg, route oral
CONDITION LABEL: in vivo
MEASURED PARAMETER: Cmax

1. CC(C)(C)Nc1nc(Nc2ccc(C(N)=O)cc2)cc(N)c1C#N    3540 ng/mL
